B1: Steroid hormone receptor ERR2, residues 100 to 176; numbered along this chain, O95718 (parent)
chain: KRLCLVCGDIASGYHYGVASCEACKAFFKRTIQGNIEYSCPATNECEITKRRRKSCQACRFMKCLKVGMLKEGVRLD

variants of: B1; experiment: abundance fitness (aPCA) (normalised: wild type 0, dead -1); higher = more abundant; growth selection in yeast, the domain comes from the species named; conditions: Homo sapiens
# class assignment by measured abundance fitness: LOW = under -0.3, MEDIUM = from -0.3 up to -0.03, HIGH = -0.03 and over

# Variant Name, Classification
measured = [
    ("R53Q", "HIGH"),
    ("E47Y", "MEDIUM"),
    ("F27N", "LOW"),
    ("I36M", "MEDIUM"),
    ("Y14F", "HIGH"),
    ("F61A", "LOW"),
    ("K63W", "LOW"),
    ("E45G", "HIGH"),
    ("A23D", "HIGH"),
    ("S20W", "MEDIUM"),
    ("C59I", "LOW"),
    ("N44V", "MEDIUM"),
    ("A42I", "HIGH"),
    ("A23Q", "MEDIUM"),
    ("Q33S", "MEDIUM"),
    ("C56F", "LOW"),
    ("P41V", "HIGH"),
    ("R52M", "MEDIUM"),
    ("S39G", "HIGH"),
    ("C4Q", "LOW"),
    ("S55M", "HIGH"),
    ("A19R", "LOW"),
    ("K50N", "HIGH"),
    ("P41H", "HIGH"),
    ("C64K", "LOW"),
    ("V6Y", "LOW"),
    ("A23R", "HIGH"),
    ("C21R", "LOW"),
    ("R30D", "MEDIUM"),
    ("G17D", "MEDIUM"),
    ("P41R", "MEDIUM"),
]
